- tested target: wild-type MphR (MphR(A), macrolide biosensor transcription factor), SEQ ID NO: 2 (gene SEQ ID NO: 1, 28) (Escherichia coli, UniProt Q9EVJ6)
- assay overview: cell-based
- condition notes: K1/2, Table 14
assay endpoint: EC50 (µM)
Reply with just the number (in µM).

Name the recorded EC50 for CC[C@H]1OC(=O)[C@H](C)C(=O)[C@H](C)[C@@H](O[C@@H]2O[C@H](C)C[C@H](N(C)C)[C@H]2O)[C@@H](C)C[C@@H](C)C(=O)/C=C/[C@]1(C)O [pikromycin] .
96.6

---

- tested target: UniProt:Q9EVJ6
- assay overview: cell-based
- condition notes: K1/2, Table 5
assay endpoint: EC50 (µM)
Value expressed in µM; do not type the unit.

Any idea what its EC50 is? The molecule is CC[C@H]1OC(=O)[C@H](C)C(=O)[C@H](C)[C@@H](O[C@@H]2O[C@H](C)C[C@H](N(C)C)[C@H]2O)[C@@H](C)C[C@@H](C)C(=O)/C=C/[C@]1(C)O [pikromycin]
97
